target: Adrenergic β2 (Homo sapiens, UniProt P07550); construct: Adherent H292 cells are removed from tissue culture flasks by treatment with Accutase™ cell detachment solution; endogenous in cells; host or cells: H292 cells; assay: Adrenergic β2 mediated cAMP production in H292 cells (AlphaScreen), concentration response; format: cell-based; conditions: 60 min, 300 μM rolipram, read-out: β2 pEC50 (converted)
Sequence (P07550 whole entry): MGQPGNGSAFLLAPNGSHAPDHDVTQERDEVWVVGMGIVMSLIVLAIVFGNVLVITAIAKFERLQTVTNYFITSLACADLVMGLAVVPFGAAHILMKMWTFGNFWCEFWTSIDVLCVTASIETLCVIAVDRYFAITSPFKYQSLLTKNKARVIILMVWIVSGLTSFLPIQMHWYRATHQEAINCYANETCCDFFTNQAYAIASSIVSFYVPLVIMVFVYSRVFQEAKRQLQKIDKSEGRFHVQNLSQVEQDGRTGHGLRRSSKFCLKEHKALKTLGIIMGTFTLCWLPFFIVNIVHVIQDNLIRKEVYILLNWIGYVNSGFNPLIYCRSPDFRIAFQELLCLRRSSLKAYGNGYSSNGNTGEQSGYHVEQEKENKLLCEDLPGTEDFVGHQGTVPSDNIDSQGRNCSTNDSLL
Structures can show the parent of a compound that is named as a salt.
recorded.metric: EC50 (µM)

Examples with answers:
CCN(CCNCCc1ccc(O)c2c1OCC(=O)N2)C(=O)CCOCCc1cccc(CN2CCC3(CC2)CN(C(=O)c2csc(C4CCCC4)n2)CCO3)c1F [Example 25, ditrifluoroacetate]    0.0398
CCc1cc(C(=O)N2CCOC3(CCN(Cc4cccc(CCOCCC(=O)N(CCNCCc5ccc(O)c6c5OCC(=O)N6)C5CCCCC5)c4)CC3)C2)cs1    0.0398
Cc1nc(C(=O)N2CCOC3(CCN(Cc4ccc(CCOCCC(=O)N(CCNCCc5ccc(O)c6c5OCC(=O)N6)C5CCCCC5)cc4)CC3)C2)cs1 [Example 45, ditrifluoroacetate]    0.0398
O=C1COc2c(CCNCCN(C(=O)CCOCCc3cccc(CN4CCC5(CC4)CN(C(=O)c4ccc6cccnc6n4)CCO5)c3)C3CCCCC3)ccc(O)c2N1    0.0398
CCN(CCNCCc1ccc(O)c2[nH]c(=O)sc12)C(=O)CCOCCc1ccc(CCN2CCC3(CC2)CN(C(=O)c2csc(C(C)C)n2)CCO3)s1 [Example 52, ditrifluoroacetate]    0.0126

(a) O=C1COc2c(CCNCCN(C(=O)CCOCCc3cccc(CN4CCC5(CC4)CN(C(=O)c4cccc(Cl)c4)CCO5)c3)C3CCCCC3)ccc(O)c2N1
(b) O=C1COc2c(CCNCCN(C(=O)CCOCCc3cccc(CN4CCC5(CC4)CN(C(=O)c4csc(CC(F)(F)F)n4)CCO5)c3)C3CCCCC3)ccc(O)c2N1
Input: Thinking about recorded EC50 values, which is higher, a or b ? Answer = label.
Output: a

(1) CCN(CCNCCc1ccc(O)c2[nH]c(=O)sc12)C(=O)CCOCCc1csc(CN2CCC3(CC2)CN(C(=O)c2csc(C(C)C)n2)CCO3)c1 [Example 48, ditrifluoroacetate]
(2) O=C1COc2c(CCNCCN(C(=O)CCOCCc3cccc(CN4CCC5(CC4)CN(C(=O)c4cc6ccccn6n4)CCO5)c3)C3CCCCC3)ccc(O)c2N1
(3) CCN(CCNCCc1ccc(O)c2c1OCC(=O)N2)C(=O)CCOCCc1cccc(CCN2CC3(C2)CN(C(=O)c2csc(C(C)C)n2)CCO3)c1 [Example 177, trifluoroacetate salt]
Input: Sort low-to-high on EC50, please. API: response body holds the labels in the requested order.
Output: 3, 2, 1

###

target: human muscarinic acetylcholine M3 receptor (Homo sapiens)
Sequence (P20309 whole entry): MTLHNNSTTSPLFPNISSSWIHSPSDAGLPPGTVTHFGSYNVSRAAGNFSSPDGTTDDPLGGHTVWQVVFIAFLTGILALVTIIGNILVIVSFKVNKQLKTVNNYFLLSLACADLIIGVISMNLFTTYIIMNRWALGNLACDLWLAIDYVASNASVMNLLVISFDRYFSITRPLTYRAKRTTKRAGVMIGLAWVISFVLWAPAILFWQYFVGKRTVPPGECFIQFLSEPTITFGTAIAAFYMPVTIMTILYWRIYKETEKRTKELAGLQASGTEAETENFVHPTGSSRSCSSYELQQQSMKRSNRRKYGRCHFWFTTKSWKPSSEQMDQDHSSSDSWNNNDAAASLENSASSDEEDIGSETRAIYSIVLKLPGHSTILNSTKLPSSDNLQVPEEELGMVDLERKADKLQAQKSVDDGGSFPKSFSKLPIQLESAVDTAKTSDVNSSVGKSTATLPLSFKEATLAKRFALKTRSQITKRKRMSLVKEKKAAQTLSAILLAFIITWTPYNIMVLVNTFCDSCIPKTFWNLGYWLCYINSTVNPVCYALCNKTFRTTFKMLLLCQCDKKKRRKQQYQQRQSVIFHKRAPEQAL
pIC50: −log10 of the molar value.
recorded.metric: pIC50

CC(C)c1nc(C(=O)N2CCOC3(CCN(Cc4csc(CCOCCC(=O)N(CCNCCc5ccc(O)c6c5OCC(=O)N6)C5CCCCC5)c4)CC3)C2)cs1 [Example 56, ditrifluoroacetate]    10.20

(A) CCCN(CCNCCc1ccc(O)c2c1OCC(=O)N2)C(=O)CCOCCc1cccc(CN2CCC3(CC2)CN(C(=O)c2csc(C(C)C)n2)CCO3)c1Cl [Example 29, ditrifluoroacetate]
(B) CC(C)c1nc(C(=O)N2CCOC3(CCN(Cc4cc(F)cc(CCOCCC(=O)N(CCNCCc5ccc(O)c6c5OCC(=O)N6)C5CCCCC5)c4)CC3)C2)cs1 [Example 47, ditrifluoroacetate]
(C) O=C1COc2c(CCNCCN(C(=O)CCOCCc3cccc(CN4CCC5(CC4)CN(C(=O)c4csc(C6CCCC6)n4)CCO5)c3)C3CCCCC3)ccc(O)c2N1 [Example 88]
Input: Task field, ranking: reported pIC50, descending order. API: response body holds the labels in the requested order.
Output: C, B, A
(C: 9.70, B: 9.40, A: 8.90)

###

molecular target: Adrenergic β2 (Homo sapiens); construct: Adherent H292 cells are removed from tissue culture flasks by treatment with Accutase™ cell detachment solution; endogenous in cells; host or cells: H292 cells; experiment: Adrenergic β2 mediated cAMP production in H292 cells, single concentration 1 μM; type: cell-based; conditions: NCI-H292, 1 μM compound, cAMP as percentage of the maximum response generated by 1E-07M formoterol, read-out: β2 % effect @1 uM
recorded.metric: percent of formoterol maximum response at 1 µM (%)

O=C1COc2c(CCNCCN(C(=O)CCOCCc3cccc(CN4CCC5(CC4)CN(C(=O)Cc4ccc6c(c4)OCO6)CCO5)c3)C3CCCCC3)ccc(O)c2N1    100
O=C1COc2c(CCNCCN(C(=O)CCOCCc3cccc(CN4CCC5(CC4)CN(C(=O)C4CC=CCC4)CCO5)c3)C3CCCCC3)ccc(O)c2N1 (stereo not shown)    109
O=C1COc2c(CCNCCN(C(=O)CCOCCc3cccc(CN4CCC5(CC4)CN(C(=O)c4cncc(Br)c4)CCO5)c3)C3CCCCC3)ccc(O)c2N1    108
Cc1ccccc1OCC(=O)N1CCOC2(CCN(Cc3cccc(CCOCCC(=O)N(CCNCCc4ccc(O)c5c4OCC(=O)N5)C4CCCCC4)c3)CC2)C1    110
O=C1COc2c(CCNCCN(C(=O)CCOCCc3cccc(CN4CCC5(CC4)CN(C(=O)c4cccc6[nH]ccc46)CCO5)c3)C3CCCCC3)ccc(O)c2N1    103
O=C1COc2c(CCNCCN(C(=O)CCOCCc3cccc(CN4CCC5(CC4)CN(C(=O)[C@H](O)c4ccccc4)CCO5)c3)C3CCCCC3)ccc(O)c2N1    96
Cc1cc(C)n2nc(C(=O)N3CCOC4(CCN(Cc5cccc(CCOCCC(=O)N(CCNCCc6ccc(O)c7c6OCC(=O)N7)C6CCCCC6)c5)CC4)C3)cc2n1    83
O=C1COc2c(CCNCCN(C(=O)CCOCCc3cccc(CN4CCC5(CC4)CN(C(=O)Cc4c[nH]c6ccccc46)CCO5)c3)C3CCCCC3)ccc(O)c2N1    108
O=C1COc2c(CCNCCN(C(=O)CCOCCc3cccc(CN4CCC5(CC4)CN(C(=O)C4COc6ccccc6O4)CCO5)c3)C3CCCCC3)ccc(O)c2N1 (stereo not shown)    93
O=C1COc2c(CCNCCN(C(=O)CCOCCc3cccc(CN4CCC5(CC4)CN(C(=O)c4cc(Br)c[nH]4)CCO5)c3)C3CCCCC3)ccc(O)c2N1    96

###

pIC50: −log10 of the molar value.
Each entry below carries its measured pIC50, system: UniProt P20309.
recorded.metric: pIC50

Examples with answers:
CCN(CCNCCc1ccc(O)c2[nH]c(=O)sc12)C(=O)CCOCCc1cc(CN2CCC3(CC2)CN(C(=O)c2csc(C(C)C)n2)CCO3)ccc1F [Example 43, ditrifluoroacetate]    9.00
O=C1COc2c(CCNCCN(C(=O)CCOCCc3cccc(CN4CCC5(CC4)CN(C(=O)C(O)c4ccccc4Cl)CCO5)c3)C3CCCCC3)ccc(O)c2N1 (stereo not shown) [Example 128]    9.00
CCCCN(CCNCCc1ccc(O)c2c1OCC(=O)N2)C(=O)CCOCCc1cccc(CCN2CCC3(CC2)CN(C(=O)c2csc(C(C)C)n2)CCO3)c1 [Example 34, ditrifluoroacetate]    9.00
CCc1cc(C(=O)N2CCOC3(CCN(Cc4cccc(CCOCCC(=O)N(CC)CCNCCc5ccc(O)c6c5OCC(=O)N6)c4F)CC3)C2)cs1 [Example 24, ditrifluoroacetate]    9.00

(1) CCN(CCNCCc1ccc(O)c2[nH]c(=O)sc12)C(=O)CCOCCc1ccc(CCN2CCC3(CC2)CN(C(=O)c2csc(C(C)C)n2)CCO3)s1 [Example 52, ditrifluoroacetate]
(2) CCCCN(CCNCCc1ccc(O)c2c1OCC(=O)N2)C(=O)CCOCCc1cc(C)cc(CN2CCC3(CC2)CN(C(=O)c2csc(C(C)C)n2)CCO3)c1 [Example 65, ditrifluoroacetate]
Input: Thinking about recorded pIC50 values, which is higher, 1 or 2 ? Answer = label.
Output: 2

###

target: Adrenergic β2 (Homo sapiens); construct: Adherent H292 cells are removed from tissue culture flasks by treatment with Accutase™ cell detachment solution; endogenous in cells; host or cells: H292 cells; assay: Adrenergic β2 mediated cAMP production in H292 cells (AlphaScreen), concentration response; format: cell-based; settings: 60 min, 300 μM rolipram, read-out: β2 pEC50 (converted)
recorded.metric: EC50 (nM)

CC(C)c1nc(C(=O)N2CCOC3(CCN(Cc4cccc(CCOCCC(=O)N(CCNCCc5ccc(O)c6c5OCC(=O)N6)[C@H](C)C(C)C)c4F)CC3)C2)cs1 [Example 12]    39.8

(a) CCc1nc(C(=O)N2CCOC3(CCN(Cc4cccc(CCOCCC(=O)N(CC)CCNCCc5ccc(O)c6c5OCC(=O)N6)c4Cl)CC3)C2)cs1 [Example 30, ditrifluoroacetate]
(b) CCN(CCNCCc1ccc(O)c2[nH]c(=O)sc12)C(=O)CCOCCc1cc(CCN2CCC3(CC2)CN(C(=O)c2csc(C(C)C)n2)CCO3)cs1 [Example 78, ditrifluoroacetate]
Input: Thinking about recorded EC50 values, which is higher, a or b ? Answer = label.
Output: b

(a) CC(C)c1nc(C(=O)N2CCOC3(CCN(Cc4cccc(SCCOCCC(=O)N(C)CCNCCc5ccc(O)c6[nH]c(=O)sc56)c4)CC3)C2)cs1 [Example 55, ditrifluoroacetate]
(b) CC(C)(C)c1nc(C(=O)N2CCOC3(CCN(Cc4cccc(CCOCCC(=O)N(CCNCCc5ccc(O)c6c5OCC(=O)N6)C5CCCCC5)c4)CC3)C2)cs1 [Example 86]
(c) CC(C)c1nc(C(=O)N2CCOC3(CCN(Cc4cccc(CCOCCC(=O)N(C)CCNCCc5ccc(O)c6[nH]c(=O)sc56)c4F)CC3)C2)cs1 [Example 13, ditrifluoroacetate]
(d) CCc1nc(C(=O)N2CCOC3(CCN(CCc4ccc(CCOCCC(=O)N(CCCCCO)CCNCCc5ccc(O)c6[nH]c(=O)sc56)cc4)CC3)C2)cs1 [Example 75, diformate]
(e) CC(C)c1nc(C(=O)N2CCOC3(CCN(CCc4cccc(CCOCCC(=O)N(CCNCCc5ccc(O)c6c5OCC(=O)N6)C5CCCCC5)c4)CC3)C2)cs1 [Example 36, ditrifluoroacetate]
Input: Task field, ranking: reported EC50, descending order. API: response body holds the labels in the requested order.
Output: b, a, d, c, e
(b: 158 nM, a: 100 nM, d: 50.1 nM, c: 25.1 nM, e: 12.6 nM)

(1) O=C1COc2c(CCNCCN(C(=O)CCOCCc3cccc(CN4CCC5(CC4)CN(C(=O)c4cnc6ccccc6n4)CCO5)c3)C3CCCCC3)ccc(O)c2N1 [Example 119]
(2) COCCCN(CCNCCc1ccc(O)c2c1OCC(=O)N2)C(=O)CCOCCc1cccc(CN2CCC3(CC2)CN(C(=O)c2csc(C(C)C)n2)CCO3)c1Cl [Example 71, ditrifluoroacetate]
Input: // pick min by EC50: 1 , 2 Answer = label.
Output: 2
(2: 50.1 nM, 1: 158 nM)
